- tgt: T1, 4H2187-AA
- T1 chain: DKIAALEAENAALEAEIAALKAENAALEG
- experimentDescription: two-hybrid library CCmax;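 also: natural log of median RNA to DNA barcode read ratio; higher means stronger binding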
- experimentalConditions: mean of both orientations
measuredAttribute: interaction score

Solved cases below.
INSERT INTO assay_data (binder, measuredattribute, measuredvalue) VALUES
  ('DENAALEAEIAALEAKIAALKAENAALKG [4H1068-AA]', 'interaction score', -1.71),
  ('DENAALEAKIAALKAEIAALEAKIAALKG [4H1350-AA]', 'interaction score', -1.97);

[a] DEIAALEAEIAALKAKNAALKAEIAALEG [4H121-AA]
[b] DENAALKAKNAALKAEIAALEAEIAALEG [4H1985-AA]
Just curious, which one has the larger interaction score reading, a or b ? Your answer should be the label attached to the chosen record. a
(a: -0.0331, b: -2.04)
